Molecular target: T1, recombinant human FGF23 (R179Q) (human, UniProt Q9GZV9 25-251)
T1 construct: also called rhFGF23(R179Q); hFGF23(R179Q)
T1 sequence (looked up): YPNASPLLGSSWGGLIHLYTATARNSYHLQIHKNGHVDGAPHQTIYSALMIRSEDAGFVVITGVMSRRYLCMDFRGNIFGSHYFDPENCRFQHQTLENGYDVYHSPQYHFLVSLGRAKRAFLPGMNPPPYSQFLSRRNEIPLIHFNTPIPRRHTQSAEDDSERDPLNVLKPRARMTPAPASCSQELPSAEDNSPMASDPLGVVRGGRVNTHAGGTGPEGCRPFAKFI
Test: SPR, antibody captured on hIgG chip, rhFGF23(R179Q) analyte
PROPERTY LABEL: Kd (nM)
# value in nM; strip the unit string

Inquiry: Please give the documented Kd of UGX135 (antibody, human IgG1, kappa, V domains shown, also called LC:N92D) VH: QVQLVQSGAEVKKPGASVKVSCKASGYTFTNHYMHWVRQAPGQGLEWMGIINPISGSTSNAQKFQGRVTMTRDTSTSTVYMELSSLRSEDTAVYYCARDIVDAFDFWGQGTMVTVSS VL: AIQLTQSPSSLSASVGDRVTITCRASQGISSALVWYQQKPGKAPKLLIYDASSLESGVPSRFSGSGSGTDFTLTISSLQPEDFATYYCQQFDDYFTFGPGTKVDIKR
Reply text: 0.0235

Next binder, please.
Inquiry: # return recorded Kd for entry UGX153 (antibody, human IgG1, kappa, V domains shown, also called HC:N31R) VH: QVQLVQSGAEVKKPGASVKVSCKASGYTFTRHYMHWVRQAPGQGLEWMGIINPISGSTSNAQKFQGRVTMTRDTSTSTVYMELSSLRSEDTAVYYCARDIVDAFDFWGQGTMVTVSS VL: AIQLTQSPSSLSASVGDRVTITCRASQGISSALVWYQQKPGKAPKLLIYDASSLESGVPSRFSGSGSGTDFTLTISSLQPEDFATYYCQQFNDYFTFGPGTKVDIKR
Reply text: 0.112
